System: ATXN3 transcripts containing exon 4
experiment_summary: ATXN3 quantitative splicing assay (qPCR, E4E5 transcripts containing exon 4)
Format: cell-based
condition_label: Human neuroblastoma SK-N-MC cells, 24 h treatment, qPCR primers/probe E4E5
Item-by-item account of IC50

molecule: C=Cc1c(C[C@@H](N)[C@H](C)F)sc2c(NCc3cccs3)snc12 [Compound 97]
assayed_system: ATXN3 transcripts containing exon 4
IC50: 0.501 to 5 µM
--
molecule: N[C@H](Cc1sc2c(NCc3cccs3)snc2c1Cl)C1CC(F)(F)C1 [Compound 53]
assayed_system: ATXN3 transcripts containing exon 4
IC50: 0.501 to 5 µM
--
molecule: Cc1c(C[C@@H](N)CF)sc2c(NCc3cccs3)snc12 [Compound 10]
assayed_system: ATXN3 transcripts containing exon 4
IC50: 0.501 to 5 µM
--
molecule: C[C@H](N)Cc1sc2c(NCc3cccs3)snc2c1C(F)(F)F [Compound 35]
assayed_system: ATXN3 transcripts containing exon 4
IC50: 0.501 to 5 µM
--
molecule: N[C@@H](CO)Cc1sc2c(NCc3ccco3)snc2c1Cl [Compound 46]
assayed_system: ATXN3 transcripts containing exon 4
IC50: 0.101 to 0.5 µM

Please look at the following molecule next.
For this molecule ( C[C@H](N)Cc1sc2c(NCc3ccco3)snc2c1Br [Compound 24] ), measured IC50 is 0.101 to 0.5 µM

---

System: ATXN3 transcripts containing exon 4
experiment_summary: ATXN3 quantitative splicing assay (qPCR, E4E5 transcripts containing exon 4)
Type: cell-based
condition_label: Human neuroblastoma SK-N-MC cells, 24 h treatment, qPCR primers/probe E4E5
Description: Human neuroblastoma SK-N-MC cells were plated in 384-well plates at 20,000 cells/well. Twenty-four hours after plating, cells were treated with compounds for 24 h at appropriate concentrations ranging from 30 μM to 0.6 nM (0.3% DMSO). Treated cells were lysed in 15 μL of lysis buffer, and cDNA was synthesized using the Fast Advanced Cells-to-Ct kit. Two μL of each cDNA was used in qPCR reactions to confirm the exon 4 skipped transcripts of ATXN3. […]
pIC50: −log10 of the molar value.
Item-by-item account of pIC50

compound: N[C@H](Cc1sc2c(NCc3ccco3)snc2c1Br)CC1CC1 [Compound 61]
endpoint_label: pIC50
result: 6.30 to 7.00

For this compound ( C[C@@H](F)[C@H](N)Cc1sc2c(NCc3cccs3)snc2c1Cl [Compound 75] ), measured pIC50 is 6.30 to 7.00

For this compound ( CC(=O)N[C@@H](C)Cc1sc2c(NCc3cccs3)snc2c1C [Compound 79] ), measured pIC50 is 4.40 to 5.00

For this compound ( C[C@H](N)Cc1sc2c(NCc3cccs3)snc2c1F [Compound 30] ), measured pIC50 is 5.00 to 5.30

For this compound ( C[C@H](N)Cc1sc2c(NCc3ccco3)snc2c1O [Compound 25] ), measured pIC50 is 4.40 to 5.00

---

System: ATXN3 transcripts containing exon 4
experiment_summary: ATXN3 quantitative splicing assay (qPCR, E4E5 transcripts containing exon 4)
Format: cell-based
condition_label: Human neuroblastoma SK-N-MC cells, 24 h treatment, qPCR primers/probe E4E5
pIC50: −log10 of the molar value.
endpoint_label: pIC50

Below, each entry is followed by its recorded pIC50 result.
smiles_structure: Cc1c(C[C@@H](N)CO)sc2c(NCc3cccs3)snc12
endpoint_label: pIC50
result: 5.30 to 6.30
//
smiles_structure: C[C@H](N)C(F)(F)c1sc2c(NCc3cccs3)snc2c1Cl
endpoint_label: pIC50
result: 5.30 to 6.30
//
smiles_structure: CC#C[C@H](N)Cc1sc2c(NCc3cccs3)snc2c1C
endpoint_label: pIC50
result: 4.40 to 5.00
//
smiles_structure: COc1c(C[C@H](C)N)sc2c(NCc3cccs3)snc12
endpoint_label: pIC50
result: 5.00 to 5.30
//
smiles_structure: COc1c(C[C@H](C)N)sc2c(NCc3ccco3)snc12
endpoint_label: pIC50
result: 5.00 to 5.30
//
smiles_structure: C[C@H](F)[C@H](N)Cc1sc2c(NCc3cccs3)snc2c1Cl
endpoint_label: pIC50
result: 6.30 to 7.00

Record Cc1c(C[C@@H](N)[C@@H](C)F)sc2c(NCc3cccs3)snc12 ; system ATXN3 transcripts containing exon 4; pIC50 = 4.40 to 5.00

Record CC(=O)Nc1csc2c(NCc3cccs3)snc12 ; system ATXN3 transcripts containing exon 4; pIC50 = 4.40 to 5.00

Record Cc1csc2c(NCc3ccncc3)snc12 ; system ATXN3 transcripts containing exon 4; pIC50 = 4.40 to 5.00

Record N[C@H](Cc1sc2c(NCc3cccs3)snc2c1Cl)CC(F)F ; system ATXN3 transcripts containing exon 4; pIC50 = 4.40 to 5.00

---

Test system: ATXN3 transcripts containing exon 4
experiment_summary: ATXN3 quantitative splicing assay (qPCR, E4E5 transcripts containing exon 4)
Type: cell-based
condition_label: Human neuroblastoma SK-N-MC cells, 24 h treatment, qPCR primers/probe E4E5
Method: Human neuroblastoma SK-N-MC cells were plated in 384-well plates at 20,000 cells/well. Twenty-four hours after plating, cells were treated with compounds for 24 h at appropriate concentrations ranging from 30 μM to 0.6 nM (0.3% DMSO). Treated cells were lysed in 15 μL of lysis buffer, and cDNA was synthesized using the Fast Advanced Cells-to-Ct kit. Two μL of each cDNA was used in qPCR reactions to confirm the exon 4 skipped transcripts of ATXN3. […]
pIC50: −log10 of the molar value.
endpoint_label: pIC50

Below, each entry is followed by its recorded pIC50 result.
molecule: N[C@H](Cc1sc2c(NCc3ccco3)snc2c1Cl)C(F)F
result: 5.30 to 6.30
--
molecule: CSc1csc2c(NCc3ccco3)snc12
result: 4.40 to 5.00

For this molecule ( Cc1c(C[C@@H](N)CC(F)(F)F)sc2c(NCc3cccs3)snc12 ), measured pIC50 is 5.30 to 6.30

For this molecule ( N[C@@H](CO)Cc1sc2c(NCc3cccs3)snc2c1Br ), measured pIC50 is 6.30 to 7.00

For this molecule ( C[C@H](N)Cc1sc2c(NCc3cccs3)snc2c1C1CC1 ), measured pIC50 is 4.40 to 5.00

For this molecule ( C[C@H](N)C(O)c1sc2c(NCc3cccs3)snc2c1Cl (some centres unmarked) ), measured pIC50 is 4.40 to 5.00

For this molecule ( Cc1csc2c(NCc3ccccc3)snc12 ), measured pIC50 is 4.40 to 5.00

For this molecule ( Cc1c(CCCN)sc2c(NCc3cccs3)snc12 ), measured pIC50 is 4.40 to 5.00

---

System: ATXN3 transcripts containing exon 4
experiment_summary: ATXN3 quantitative splicing assay (qPCR, E4E5 transcripts containing exon 4)
Type: cell-based
condition_label: Human neuroblastoma SK-N-MC cells, 24 h treatment, qPCR primers/probe E4E5
Experimental: Human neuroblastoma SK-N-MC cells were plated in 384-well plates at 20,000 cells/well. Twenty-four hours after plating, cells were treated with compounds for 24 h at appropriate concentrations ranging from 30 μM to 0.6 nM (0.3% DMSO). Treated cells were lysed in 15 μL of lysis buffer, and cDNA was synthesized using the Fast Advanced Cells-to-Ct kit. Two μL of each cDNA was used in qPCR reactions to confirm the exon 4 skipped transcripts of ATXN3. […]
pIC50: −log10 of the molar value.
endpoint_label: pIC50

Below, each entry is followed by its recorded pIC50 result.
compound: C=Cc1c(C[C@H](C)N)sc2c(NCc3cccs3)snc12 [Compound 21]
assayed_system: ATXN3 transcripts containing exon 4
endpoint_label: pIC50
result: 4.40 to 5.00

compound: C[C@H](N)Cc1sc2c(NCc3cccs3)snc2c1Br [Compound 18]
assayed_system: ATXN3 transcripts containing exon 4
endpoint_label: pIC50
result: 6.30 to 7.00

compound: N[C@H](Cc1sc2c(NCc3cccs3)snc2c1Br)C1CC(F)(F)C1 [Compound 80]
assayed_system: ATXN3 transcripts containing exon 4
endpoint_label: pIC50
result: 5.30 to 6.30

For this compound ( N[C@H](Cc1sc2c(NCc3cccs3)snc2c1Br)CC(F)F [Compound 70] ), measured pIC50 is 4.40 to 5.00

---

Tested on: ATXN3 transcripts containing exon 4
experiment_summary: ATXN3 quantitative splicing assay (qPCR, E4E5 transcripts containing exon 4)
Type: cell-based
condition_label: Human neuroblastoma SK-N-MC cells, 24 h treatment, qPCR primers/probe E4E5
pIC50: −log10 of the molar value.
Item-by-item account of pIC50

Below, each entry is followed by its recorded pIC50 result.
molecule: Cc1c(C[C@H](C)N)sc2c(NCc3ccco3)snc12
pIC50: 5.30 to 6.30
//
molecule: N[C@@H](COC1CC1)Cc1sc2c(NCc3cccs3)snc2c1Br
pIC50: 5.30 to 6.30
//
molecule: N[C@@H](CO)Cc1sc2c(NCc3ccco3)snc2c1Br
pIC50: 7.00 to 11.00

Record COC(c1sc2c(NCc3cccs3)snc2c1Br)[C@H](C)N (some centres unmarked) ; system ATXN3 transcripts containing exon 4; pIC50 = 4.40 to 5.00

Record FC(F)(F)c1csc2c(NCc3ccco3)snc12 ; system ATXN3 transcripts containing exon 4; pIC50 = 4.40 to 5.00

Record C[C@H](N)C(O)c1sc2c(NCc3cccs3)snc2c1Br (some centres unmarked) ; system ATXN3 transcripts containing exon 4; pIC50 = 4.40 to 5.00

Record CSc1c(C[C@H](C)N)sc2c(NCc3ccco3)snc12 ; system ATXN3 transcripts containing exon 4; pIC50 = 5.00 to 5.30
